Test system: P388 leukemia ip, CD2F1 mice, survival T/C
test.name: NCI In Vivo Anticancer Drug Screen. Data for tumor model P388 Leukemia (intraperitoneal) in CD2F1 (CDF1) mice
test.settings: endpoint: median survival time; dose: 30.0 mg/kg/injection; schedule: Q01DX005 (ip); vehicle: Klucel (hydroxypropylcellulose) (HPC)
Inconclusive results and toxic doses are left out. The calls were made as follows: active = survival T/C of 150% or more; inactive = T/C below 125% in these data.
Give your call using only these classes: yes (active), no (inactive)

Query :: Query: recorded result category for CN(C)C1=NC(N(C)C)=C2C=CC=C12 in this test
Result :: no

Query :: Hey, what did the test say about c1ccc(Cn2ccnc2CSCCSCc2nccn2Cc2ccccc2)cc1 ?
Result :: no

Query :: Recorded test outcome, item CC(C)N1C(Nc2ccccn2)C(C)(C)C(C)(C)C1Nc1ccccn1 (configuration not stated)
Result :: no

Query :: Just curious, what result did Nc1nc(N)nc(Nc2ccc(-c3cc4ccc(-c5ncc[nH]5)cc4[nH]3)cc2)n1 get here?
Result :: yes

Query :: Check the results log: what was the call for O=C1C2=C(Nc3cc([N+](=O)[O-])ccc3N2)OC1c1ccc2c(c1)OCO2 (configuration not stated) ?
Result :: no

Query :: What is the recorded call for this molecule in the test? CC(=O)Nc1ccc(Nc2nc(Cl)nc(Nc3ccc(NC(C)=O)cc3)n2)cc1
Result :: no

Query :: Query: recorded result category for C1=C(C2CCCC3[C@@H]4C[C@@H](CN23)C2CCCCN2C4)CCC2[C@H]3C[C@H](CN12)C1CCCCN1C3 (some centres not stated) in this test
Result :: no

* * *

System: P388 leukemia ip, CD2F1 mice, survival T/C
test.name: NCI In Vivo Anticancer Drug Screen. Data for tumor model P388 Leukemia (intraperitoneal) in CD2F1 (CDF1) mice
test.settings: endpoint: median survival time; dose: 100.0 mg/kg/injection; schedule: Q01DX005 (ip); vehicle: Klucel (hydroxypropylcellulose) (HPC); higher = longer survival
Inconclusive results and toxic doses are left out.
parameter.measured: T/C

Measured T/C, C=C(Cl)C(=NC(C)(C)C)Nc1ccc(C(=O)OCC)cc1 : 100 % of control

Form field T/C, entry CCOC(=O)N1N=C(c2ccccc2)OC2(N3CCCC3)CCC(C(C)(C)C)CC12 (stereo not given) : 96 % of control

// T/C lookup, compound = COc1ccccc1-n1c(Cc2cccc3ccccc23)nnc1SCC(=O)O , result: 100 % of control

Record CC(C)(O)c1cc(=O)n(Cc2ccccc2)[nH]1 , field T/C: 109 % of control

The reported value for Cc1cc(=O)c(C(=O)NC(=O)c2ccccn2)c(C)o1 in terms of T/C is 101 % of control

* * *

For each record, write down the corresponding T/C.
System: P388 leukemia ip, CD2F1 mice, survival T/C
test.name: NCI In Vivo Anticancer Drug Screen. Data for tumor model P388 Leukemia (intraperitoneal) in CD2F1 (CDF1) mice
test.settings: endpoint: median survival time; dose: 120.0 mg/kg/injection; schedule: Q01DX005 (ip); vehicle: saline with Tween-80; higher = longer survival
Inconclusive results and toxic doses are left out.

Item: O=C(O)CCC12CCC(=O)N1Cc1ccccc1C2=O (centres undefined) | T/C: 110 % of control

For reference, reported T/C for CCOC(=O)CCCCCO[Si](c1ccccc1)(c1ccccc1)C(C)(C)C stands at 99 % of control

T/C reported for this compound CS(=O)(=O)OCCC[Se]Cc1ccccc1C[Se]CCCOS(C)(=O)=O : 91 % of control

Data point: COC(=O)c1nc2nnc(NC(=O)Nc3ccc(Cl)cc3)n2c(-c2ccc(Cl)cc2)c1C ; T/C = 99 % of control

O/N=C/C(=Nc1ccccc1N=C(/C=N/O)NO)NO yielded T/C of 103 % of control

Note to self: T/C recorded for COC(=O)c1[nH]c(=O)c(C#N)c(C(=O)OC)c1C(=O)/C=C/c1ccccc1 was 96 % of control

The value of T/C measured for the compound S=C(CC(=S)N1CCOCC1)N1CCOCC1 turned out to be 89 % of control

Data point: O=C1CCC2C(C3SCCCS3)=CCN12 (centres undefined) ; T/C = 95 % of control

The reported value for O=C1c2ccccc2-c2c(Br)cc(Br)c(NC(=O)C(Cl)Cl)c21 in terms of T/C is 96 % of control
